Molecular target: S15V-hP2X3R (Homo sapiens, UniProt P56373, S15V)
Sequence (P56373 1-397 S15V): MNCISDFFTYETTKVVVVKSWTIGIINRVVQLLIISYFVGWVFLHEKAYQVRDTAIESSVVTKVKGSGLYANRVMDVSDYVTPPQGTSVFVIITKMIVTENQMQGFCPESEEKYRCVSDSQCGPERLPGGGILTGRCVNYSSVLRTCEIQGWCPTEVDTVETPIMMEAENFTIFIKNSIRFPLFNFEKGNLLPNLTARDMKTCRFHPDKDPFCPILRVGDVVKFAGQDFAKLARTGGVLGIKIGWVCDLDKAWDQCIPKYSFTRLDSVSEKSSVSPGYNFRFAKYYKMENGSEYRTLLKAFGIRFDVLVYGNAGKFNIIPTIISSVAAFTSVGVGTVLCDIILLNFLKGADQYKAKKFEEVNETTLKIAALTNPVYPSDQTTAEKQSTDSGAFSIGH
Assay: TEVC of ATP-induced currents, S15V-hP2X3R expressed in X. laevis oocytes (peak current protocol)
Settings: 1 µM ATP, 30-s preincubation of antagonist, X. laevis oocytes, −60 mV; geometric mean
For each of the molecules below, state its IC50.

For reference, reported IC50 for "Cc1ccc(Cl)c(Nc2ccccc2C(=O)O)c1Cl" stands at > 300 µM

Value of measured IC50 for the entry "COc1ccc2cc([C@H](C)C(=O)O)ccc2c1" : > 300 µM

In plain terms, CC(C)Cc1ccc(C(C)C(=O)O)cc1 (stereo not drawn) has a documented IC50 of > 300 µM
